System: MOLM-13
Assay: Antiproliferative activity against human MOLM-13 cells assessed as cell growth inhibition at 10 uM incubated for 48 hrs by CCK8 assay relative to control
Type: functional
Settings: read-out: GI
Lab note: compare inhibition of growth at 10 µM against 40%. Equal or greater, write true (1). Smaller, write false (0).

Solved cases (2 shown):
# COMPOUND, SYSTEM NAME, LABEL
data = [
    ("COc1ccc2c(c1OC)C(=O)O[C@@H]2[C@H]1c2c(c(CC3CC3)c3c(c2OC)OCO3)CCN1C(=O)OC(C)(C)C", "MOLM-13", "true (1)"),
    ("COc1ccc2c(c1OC)C(=O)O[C@@H]2[C@H]1c2c(c(CC3CCN(C(=O)OC(C)(C)C)C3)c3c(c2OC)OCO3)CCN1C(=O)OC(C)(C)C (stereo partly specified)", "MOLM-13", "true (1)"),
]

Please tell me: is the compound `COc1ccc2c(c1OC)C(=O)O[C@@H]2[C@H]1c2c(c(C3CC3)c3c(c2OC)OCO3)CCN1C(=O)OC(C)(C)C` at or over 40% in terms of inhibition of growth at 10 µM? false (0)

What do you have for `COc1ccc2c(c1OC)C(=O)O[C@@H]2[C@H]1c2c(c(CC3(F)CN(C(=O)OC(C)(C)C)C3)c3c(c2OC)OCO3)CCN1C(=O)OC(C)(C)C` ? true (1)

Entry to check: `COc1ccc2c(c1OC)C(=O)O[C@@H]2[C@H]1c2c(cc3c(c2OC)OCO3)CCN1C` false (0)

One more compound: `COc1ccc2c(c1OC)C(=O)O[C@@H]2[C@H]1c2c(c(CCCCCC#N)c3c(c2OC)OCO3)CCN1C(=O)OC(C)(C)C` true (1)

// query: `COc1ccc2c(c1OC)C(=O)O[C@@H]2[C@H]1c2c(c(CC[Si](C)(C)C)c3c(c2OC)OCO3)CCN1C(=O)OC(C)(C)C` true (1)

Consider next the compound `COc1ccc2c(c1OC)C(=O)O[C@@H]2[C@H]1c2c(c(C3COC3)c3c(c2OC)OCO3)CCN1C(=O)OC(C)(C)C` in the same way. false (0)
